system: Trichoplusia ni; experiment: Antifeedant activity against Trichoplusia ni (cabbage looper) third-instar larvae stage assessed as concentrations causing 50% feeding deterrence by feeding deterrent bioassay; assay type: functional, organism-based
DC50 under 9 microg/cm2 gets y, anything at or over 9 microg/cm2 gets n.

O=C1C(Br)=C(Br)C(=O)c2ccccc21; n
O=C1C=CC(=O)c2c(O)cccc21; y
c1ccc2c(c1)ccc1cccnc12; n
COC1=CC(=O)c2ccccc2C1=O; y
O=C1C=Cc2ccccc2C1=O; y
CC1=CC(=O)c2c(O)cccc2C1=O; y

Would you kindly verify if DC50 of COC1=C(OC)C(=O)C(C)=CC1=O is strictly less than 9 microg/cm2? y

Would you kindly verify if DC50 of CC1=CC(=O)C(C(C)C)=CC1=O is strictly less than 9 microg/cm2? n

Would you kindly verify if DC50 of CC1=CC(=O)c2ccccc2C1=O is strictly less than 9 microg/cm2? y

Would you kindly verify if DC50 of O=C1C=CC(=O)c2c(O)ccc(O)c21 is strictly less than 9 microg/cm2? n

Would you kindly verify if DC50 of O=C1C=C(Br)C(=O)c2ccccc21 is strictly less than 9 microg/cm2? y

Would you kindly verify if DC50 of O=C1C(Cl)=C(N2CCOCC2)C(=O)c2ccccc21 is strictly less than 9 microg/cm2? n

###

Below, each of the molecules is paired with its reported mortality at 10 µg/mL value.
system: Trichoplusia ni; experiment: Toxicity against Trichoplusia ni (cabbage looper) third-instar larvae stage assessed as mortality at 10 ug/ml for 24 hr by topical application; assay type: functional
API: value field is a number in %; no unit string.

Fill in the blank: the reported mortality at 10 µg/mL of O=C1c2cccc(O)c2C(=O)c2c(O)cccc21 is ____. 12

Fill in the blank: the reported mortality at 10 µg/mL of CC1=CC(=O)C(C(C)C)=CC1=O is ____. 26.7

Fill in the blank: the reported mortality at 10 µg/mL of O=C1c2ccccc2C(=O)c2c(O)cccc21 [1-HYDROXYANTHRAQUINONE] is ____. 10

Fill in the blank: the reported mortality at 10 µg/mL of CC(C)=CCC1=C(O)C(=O)c2ccccc2C1=O is ____. 10

Fill in the blank: the reported mortality at 10 µg/mL of Cc1cc(O)c2c(c1)C(=O)c1cc(O)cc(O)c1C2=O is ____. 10

###

Below, each of the compounds is paired with its reported mortality at 10 µg/mL value.
tested on: Trichoplusia ni; test: Toxicity against Trichoplusia ni (cabbage looper) third-instar larvae stage assessed as mortality at 10 ug/ml for 24 hr by topical application; type: functional
Give me the value, and tack the unit on after it.

Worked set:
O=C1C=CC(=O)c2c(O)cccc21 [JUGLONE]; 5%
COC1=CC(=O)c2ccccc2C1=O [2-Methoxy-1,4-naphthoquinone]; 8%
O=C1C(Cl)=C(Cl)C(=O)c2ccccc21 [Dichlon]; 8%
O=C1C=Cc2ccccc2C1=O [1,2-NAPHTHOQUINONE]; 3.3%
COC1=C(OC)C(=O)C(C)=CC1=O [Ubiquinone Qo]; 23.3%

Fill in the blank: the reported mortality at 10 µg/mL of O=C1C(Br)=C(Br)C(=O)c2ccccc21 [2,3-Dibromo-1,4-naphthoquinone] is ____. 10%

Fill in the blank: the reported mortality at 10 µg/mL of c1ccc2c(c1)ccc1cccnc12 [1-NAPHTHOQUINOLINE] is ____. 10%

Fill in the blank: the reported mortality at 10 µg/mL of O=C1C(Cl)=C(N2CCOCC2)C(=O)c2ccccc21 [2-Chloro-3-morpholino-1,4-naphthoquinone] is ____. 12%

Fill in the blank: the reported mortality at 10 µg/mL of CC1=CC(=O)c2ccccc2C1=O [MENADIONE] is ____. 13%

Fill in the blank: the reported mortality at 10 µg/mL of O=C1C=C(Br)C(=O)c2ccccc21 [2-Bromo-1,4-naphthoquinone] is ____. 15%

Fill in the blank: the reported mortality at 10 µg/mL of O=C1C=CC(=O)c2c(O)ccc(O)c21 [NAPHTHAZALIN] is ____. 20%

Fill in the blank: the reported mortality at 10 µg/mL of CC1=CC(=O)c2c(O)cccc2C1=O [PLUMBAGIN] is ____. 7%

Fill in the blank: the reported mortality at 10 µg/mL of CC1=C(Br)C(=O)C(C(C)C)=C(Br)C1=O [Dibromothymoquinone] is ____. 5%

Fill in the blank: the reported mortality at 10 µg/mL of O=C1C(Cl)=C(Cl)C(=O)C(Cl)=C1Cl [CHLORANIL] is ____. 10%

Fill in the blank: the reported mortality at 10 µg/mL of O=C1c2cccc(O)c2C(=O)c2cccc(O)c21 [ANTHRARUFIN] is ____. 15%

Fill in the blank: the reported mortality at 10 µg/mL of O=C1C(=O)c2ccccc2-c2ccccc21 [9,10-PHENANTHRENEQUINONE] is ____. 10%
